# test.name: Half life in SPF ICR mouse at 100 mg/kg, sc
# Format: ADME, organism-based
# condition: in vivo
parameter: half-life (h)

> print(dat)
                               input.smiles  parameter  value
1  CO/N=C1/C(=O)N(Cc2cn(CC(=O)N3CCC[C@@H]4CN(c5c(F)cc6c(=O)c(C(=O)O)cn(C7CC7)c6c5OC)C[C@@H]43)nn2)c2ccccc21  half-life    3.1
2  COc1c(N2C[C@H]3CCCN(C(=O)Cn4cc(CN5C(=O)/C(=N/NC(N)=S)c6ccccc65)nn4)[C@H]3C2)c(F)cc2c(=O)c(C(=O)O)cn(C3CC3)c12  half-life    4.3
